# experiment.summary: chemical genetic growth profiling, strain panel (AID 1159580);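 note: tested at 20 µM; growth read once vehicle control cultures reached saturation at 30 °C; 1 = growth at the plate median or of vehicle wells; lower values mean less growth of the strain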
# run.conditions: S. cerevisiae deletion strains, growth OD, locus YEL061C, strain CIN8, active compounds read low
Hit rate of the full screen: of about 5,500 compounds, about 2,000 (36%) were called active. Roughly 18% stayed inconclusive and do not appear here. The list shows a part of the results. Where a SMILES comes first, the peptide text is derived from it. The star is where a group is joined. For = O=C*
observation.type: normalized growth
Quick one: just the number, no unit, thanks!

Some molecules with recorded normalized growth:
• CSCCC(NC=O)C(=O)NC(Cc1ccccc1)C(=O)O (stereo not drawn) (For-Met-Phe-OH; configuration not given here) = 1.01
• COc1ccc2[nH]cc(CCN)c2c1 = 0.977
• NC(Cc1c[nH]c2ccccc12)C(=O)O (stereo not drawn) = 0.987
• COc1cccc(-c2nc(C#N)c(N)o2)c1 = 1.02
• C=C1SC(=Nc2cccc(OC)c2)N(C(=O)C(c2ccccc2)C2CCCC2)C1(C)C (stereo not drawn) = 0.963

-- ask Which normalized growth is listed for N=C(N)c1ccc(OCCCCCOc2ccc(C(=N)N)cc2)cc1 ?
-- reply 0.965

-- ask Now consider FC(F)(F)c1cccc(CSc2n[nH]c(=S)s2)c1 .
-- reply 0.861

-- ask // next record CC(=O)/C=C\[C@@H]1[C@@]2(C)CCCC(C)(C)C2CC[C@@]1(C)O (stereo partly drawn)
-- reply 0.968
